Readout kind: melting point (°C)

(1) CCNc1nsc2ccccc12
(2) O=c1[nH][nH]c(=O)c2cc3c(cc12)CCC3
(3) N#Cc1ccc(-c2cc[nH]n2)cc1
[ask] Reorder the records above by melting point so that values decrease. A complete answer lists every label in the requested sequence.
[reply] 2, 3, 1

(1) CN(C)c1ccc(O)cc1
(2) C[Si](C)(Cl)C(Cl)Cl
[ask] Choose between 1 and 2 : whose measured melting point value is numerically larger? Answer format: the label of the selected item.
[reply] 1
(1: 77 °C, 2: -48 °C)

###

Readout kind: melting point (°C)

Reference set (10 entries):
INSERT INTO results (compound, value) VALUES
  ('CCCCCCCl', -94),
  ('CC1C2CCC3C4CC=C5CC(N(C)C)CCC5(C)C4CCC32CN1C (configuration not stated)', 126),
  ('IC=CI', -14),
  ('CCCCC(CC)CO (configuration not stated)', -70),
  ('Clc1nnnn1-c1ccccc1', 123),
  ('NS(=O)(=O)c1cc2c(s1)SCCC2=O', 222),
  ('Nc1nc(O)nc(C23CC4CC(CC(C4)C2)C3)n1', 340),
  ('Nc1ccc(Cl)cn1', 137),
  ('COc1ccc(CCCCO)cc1', 3.5),
  ('COc1ccc(C=O)cc1[N+](=O)[O-]', 99);

(I) CC(=O)C=CC=Cc1ccccc1
(II) O=C(CBr)c1ccc(C(=O)CBr)cc1
(III) FC(F)(F)c1ccc2cc[nH]c2c1
[ask] rank_up(items): orders items by reported melting point in ascending numerical order. A complete answer lists every label in the requested sequence.
[reply] I, III, II
(I: 68 °C, III: 103 °C, II: 173 °C)

###

Readout kind: melting point (°C)

INSERT INTO measurements (compound, readout_kind, value) VALUES
  ('Cn1c(=O)c(C2=NNC(=O)C2=Cc2c(O)ccc3ccccc23)c(O)c2ccccc21', 'melting point', 285);

(A) CCCC1OC2CC3C4CCC5=CC(=O)C=CC5(C)C4C(O)CC3(C)C2(C(=O)CO)O1 (stereo unspecified)
(B) CC(=O)OCCOc1cc(OCCOC(C)=O)c([N+](=O)[O-])cc1[N+](=O)[O-]
[ask] Between the entries labeled A and B , whose measured melting point is lower? Answer format: the label of the selected item.
[reply] B

###

Readout kind: melting point (°C)

Reference set (2 entries):
INSERT INTO measurements (compound, value) VALUES
  ('O=C(O)CN(CCO)CC(=O)O', 178),
  ('FC(F)(F)Sc1ccc(CBr)cc1', 55);

(a) O=C(c1ccccc1)c1ccc(F)c(F)c1
(b) O=c1n(-c2ccccc2)c(=O)n2n1C1OC3c4ccccc4C1C32 (stereo unspecified)
[ask] Between the entries labeled a and b , whose measured melting point is lower? Answer format: the label of the selected item.
[reply] a
(a: 56 °C, b: 146 °C)

###

Readout kind: melting point (°C)

Reference set (10 entries):
INSERT INTO assay_data (molecule, readout_kind, value) VALUES
  ('CCCCCCCCC(CCCCCCCC)C(=O)O', 'melting point', 38.5),
  ('C=C=N', 'melting point', -78),
  ('CC(=O)Oc1ccccc1C(=O)OCC(=O)N(C(C)C)C(C)C', 'melting point', 108),
  ('COC(=O)c1cc(OC)c(O)c(OC)c1', 'melting point', 106),
  ('CC1C(=O)C2(C)CCC1C2(C)C (stereo unspecified)', 'melting point', 38),
  ('S=C(c1ccc2c(c1)OCO2)N1CCCCC1', 'melting point', 113),
  ('O=C(O)c1cc(F)cc([N+](=O)[O-])c1', 'melting point', 125),
  ('O=C1NC(=O)C(Cc2cccc(CC3C(=O)NC(=O)NC3=O)c2)C(=O)N1', 'melting point', 272),
  ('C=CCNC(=O)OC(C)(C)C', 'melting point', 37),
  ('Nc1ccc([N+](=O)[O-])c(F)c1', 'melting point', 160);

(A) CCCCCCOCCOCCO
(B) O=C(OCC1OC(O)(COC(=O)c2cccnc2)C(OC(=O)c2cccnc2)C1OC(=O)c1cccnc1)c1cccnc1 (stereo unspecified)
[ask] Choose between A and B : whose measured melting point value is numerically larger? Answer format: the label of the selected item.
[reply] B
(B: 141 °C, A: -40 °C)

(I) OCCN(CCO)Cc1ccc(COc2ccccc2)cc1
(II) N#Cc1ccc(Cl)cc1N
(III) CCC(=O)c1ccc(F)c(C(F)(F)F)c1
[ask] Thanks in advance: please rank these 3 entries by melting point, highest to lowest. A complete answer lists every label in the requested sequence.
[reply] II, I, III

(I) O=[N+]([O-])c1cccc(SSc2cccc([N+](=O)[O-])c2)c1
(II) Oc1ccc(F)cc1Cl
[ask] Between the entries labeled I and II , whose measured melting point is lower? Answer format: the label of the selected item.
[reply] II

The measurements presented in this section are drawn from a melting point compilation (Tetko et al.).
